Experiment: Safety index, ratio of cytotoxicity against human HT-29 cells to antimalarial activity against chloroquine-resistant Plasmodium falciparum FCR-3
Format: toxicity, cell-based
Conditions: read-out: Selectivity Index
Observed property: selectivity ratio
Returns: the value as a bare number; no unit string appended.

Solved cases below.
[
  {
    "Smiles code": "O=[N+]([O-])c1ccccc1S(=O)(=O)N1CCN(c2ccnc3cc(Cl)ccc23)CC1",
    "Observed property": "selectivity ratio",
    "Reported measurement": 44
  },
  {
    "Smiles code": "CC(=O)Nc1ccc(S(=O)(=O)N2CCN(c3ccnc4cc(Cl)ccc34)CC2)cc1",
    "Observed property": "selectivity ratio",
    "Reported measurement": 84
  }
]

Note: attention shifts to another entry.
Q. selectivity ratio lookup needed for "CCCS(=O)(=O)N1CCN(c2ccnc3cc(Cl)ccc23)CC1" , thanks.
A. 39
